System: Sheep choroid plexus(SCP) cells
Assay: Toxicity of compounds in control wells without virus, graded morphologically 0 to 4
Type: cell-based
Set-up: key: 0 = no toxicity; 4 = total cell lyses
Conditions: Table 4; 0.1 mM Concn.; 0 to 4 scale
Kindly supply the reported Toxicity values for the records listed here.

Which measured Toxicity belongs to CC(=O)OC[C@H]1[C@H](OC(C)=O)[C@@H](OC(C)=O)CN1C(=O)Cc1ccccc1 , tested on Sheep choroid plexus(SCP) cells? 0

Then OCCN1C[C@H](O)[C@@H](O)[C@@H]1CO ? 0

Then CCCCCCN1C[C@H](OC(C)=O)[C@@H](OC(C)=O)[C@@H]1COC(C)=O ? 2

Then CCC(=O)OC[C@H]1[C@H](OC(=O)CC)[C@@H](OC(=O)CC)CN1C(=O)OCc1ccccc1 ? 0

Then CCCCN1CC(OC(=O)CCC)C(OC(=O)CCC)C1COC(=O)CCC (centres unmarked) ? 0

Then CC(=O)OC[C@H]1[C@H](OC(C)=O)[C@@H](OC(C)=O)CN1C(=O)OCc1ccccc1 ? 0

Then CCCC(=O)OC[C@H]1[C@H](OC(=O)CCC)[C@@H](OC(=O)CCC)CN1C(=O)OCc1ccccc1 ? 1

Then CCC(=O)N1C[C@H](OC(C)=O)[C@@H](OC(C)=O)[C@@H]1COC(C)=O ? 1

Then CCCCN1CC(O)C(O)C1CO (centres unmarked) ? 0

Then CCc1ccc(CN2C[C@H](OC(C)=O)[C@@H](OC(C)=O)[C@@H]2COC(C)=O)cc1 ? 1

Then OC[C@H]1[C@H](O)[C@@H](O)CN1CCCc1ccccc1 ? 0
